# ASSAY_NOTES: growth inhibitors of wild-type TIM10 yeast, confirmation, counter-screen for tim10-1 synthetic lethality project, single concentration, luminescence, S. cerevisiae (AID 463215);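 further: isogenic wild-type TIM10 control yeast grown in succinate dextrose medium; this counterscreen used the strain with wild-type TIM10; 0% = yeast with DMSO and 100% = medium wells lacking yeast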
# CONDITION_DETAILS: S. cerevisiae tim10 strain growth, BacTiter-Glo luminescence, 24 h; at 10 µM; stronger effect = higher value
Hit rate of the full screen: of about 4,600 compounds, about 2,900 (63%) were called active. So high a share suggests a set chosen from earlier hits. These entries were drawn from the full list.
REPORTED_PROPERTY: inhibition

Observe how each entry below is paired with its result.
* Nc1cccc(-c2cc(-c3ccccc3)nc(-c3cccc(N)c3)n2)c1 | 36.6% (active)
* C/C(=N/NC(=S)Nc1ccccc1)c1ccc2c(c1)OCO2 | 38.8% (active)
* CCCc1nc2c(c(=O)c3ccccc3n2C)c(=O)n1C1CCCCCC1 | -18.1% (inactive)

Form: molecule = `O=C(NNc1c2ccccc2nc2ccccc12)c1cc2ccccc2cc1O` ; inhibition = -21.2% (inactive)

Entry under test: `Cc1oc2c(c1C(=O)N1CCOCC1)C(=O)c1ccccc1C2=O` . Its inhibition was 22.8% (inactive)

Note to self: inhibition recorded for `Cc1cc(C)n(-c2nc(SCC(=O)N3CCCC3)c3c4c(sc3n2)CCCC4)n1` was 23.4% (inactive)
